system under test: GST-MCL-1 (Homo sapiens, UniProt Q07820)
Sequence (Q07820 whole entry): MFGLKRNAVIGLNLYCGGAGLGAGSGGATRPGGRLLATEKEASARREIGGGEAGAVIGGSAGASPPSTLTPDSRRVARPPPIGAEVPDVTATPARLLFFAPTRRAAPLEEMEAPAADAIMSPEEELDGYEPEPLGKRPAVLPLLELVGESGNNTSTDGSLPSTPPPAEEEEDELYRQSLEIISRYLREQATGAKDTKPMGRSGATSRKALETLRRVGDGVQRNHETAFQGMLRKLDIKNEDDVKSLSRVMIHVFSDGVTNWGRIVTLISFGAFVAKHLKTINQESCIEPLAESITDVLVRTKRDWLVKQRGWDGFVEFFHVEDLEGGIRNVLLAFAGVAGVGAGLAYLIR
test: TR-FRET MCL-1 binding assay (competition with probe F-Bak)
assay setup: without HS; read-out: MCL-1 Binding Ki
Reported values of log10 of Ki for individual entries
A difference of one corresponds to tenfold Ki; all values are log10 with Ki in nM.

## Input Report measured log10 of Ki; entry is COCCOCCOCCOc1ccccc1-c1nccc(COc2ccc3cc2C[C@H](C(=O)O)Oc2ncnc4sc(-c5ccc(F)cc5)c(c24)-c2c(C)c(Cl)c(c(Cl)c2C)O[C@H](CN2CCN(C)CC2)CO3)n1 [Example 15]
## Output -1.82

## Input Report measured log10 of Ki; entry is COCCOCCOCC1CN(c2nccc(COc3ccc4cc3C[C@@H](C(=O)O)Oc3ncnc5sc(-c6ccc(F)cc6)c(c35)-c3c(C)c(Cl)c(c(Cl)c3C)O[C@H](CN3CCN(C)CC3)CO4)n2)C1 [Example 140]
## Output 1.54

## Input Report measured log10 of Ki; entry is CO[C@H]1O[C@H](COc2cccc(-c3nccc(COc4ccc5cc4C[C@@H](C(=O)O)Oc4ncnc6sc(-c7ccc(F)cc7)c(c46)-c4ccc(c(Cl)c4C)O[C@H](CN4CCN(C)CC4)CO5)n3)c2)[C@@H](OC)[C@H](OC)[C@@H]1OC [Example 8]
## Output 0.95

## Input Report measured log10 of Ki; entry is COCCOCCOCCO[C@H]1CC[C@@H](c2nccc(COc3ccc4cc3C[C@H](C(=O)O)Oc3ncnc5sc(-c6ccc(F)cc6)c(c35)-c3c(C)c(Cl)c(c(Cl)c3C)O[C@H](CN3CCN(C)CC3)CO4)n2)CC1 [Example 70]
## Output -1.92

## Input Report measured log10 of Ki; entry is COCCOCCOCCOCC1(c2nccc(COc3ccc4cc3C[C@H](C(=O)O)Oc3ncnc5sc(-c6ccc(F)cc6)c(c35)-c3c(C)c(Cl)c(c(Cl)c3C)O[C@H](CN3CCN(C)CC3)CO4)n2)CC1 [Example 29]
## Output -0.69

## Input Report measured log10 of Ki; entry is Cc1c(Cl)c2c(Cl)c(C)c1-c1c(-c3ccc(F)cc3)sc3ncnc(c13)O[C@@H](C(=O)O)Cc1cc(ccc1OCc1ccnc(N3CCOCCOCCOCCOCCOCC3)n1)OC[C@@H](CN1CCN(C)CC1)O2 [Example 116]
## Output -0.48

## Input Report measured log10 of Ki; entry is Cc1c(Cl)c2c(Cl)c(C)c1-c1c(-c3ccc(F)cc3)sc3ncnc(c13)O[C@@H](C(=O)O)Cc1cc(ccc1OCc1ccnc(N3C[C@@H]4[C@H](C3)[C@H]4C(=O)O)n1)OC[C@@H](CN1CCN(C)CC1)O2 [Example 36]
## Output -0.84

## Input Report measured log10 of Ki; entry is Cc1c(Cl)c2c(Cl)c(C)c1-c1c(-c3ccc(F)cc3)sc3ncnc(c13)O[C@@H](C(=O)O)Cc1cc(ccc1OCc1ccnc(-c3ccc(OCCN4CC5(COC5)C4)cc3)n1)OC[C@@H](CN1CCN(C)CC1)O2 [Example 165]
## Output -1.51

## Input Report measured log10 of Ki; entry is COCCOCCOCCOCc1cc(OC[C@H]2COCCO2)ccc1-c1nccc(COc2ccc3cc2C[C@H](C(=O)O)Oc2ncnc4sc(-c5ccc(F)cc5)c(c24)-c2c(C)c(Cl)c(c(Cl)c2C)O[C@H](CN2CCN(C)CC2)CO3)n1 [Example 155]
## Output -3.00
